# assay-details: protein stability index of a GFP-peptide fusion (GPS, HEK-293T) (PSI 1-6); higher = more stable;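 note: 24-mer peptide tiles fused after GFP, lentivirally expressed, FACS-sorted into six equal bins by GFP/DsRed ratio, decoded by Illumina sequencing, PSI is the read-weighted mean bin number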
# measurement-setup: treatment: DMSO; c terminus: a fixed tail appended
quantity-kind: protein stability index

- query-sequence: "CTWSIFQSIEYAGQQDQVKLHDFF [PPEF2]"
  protein stability index: 2.54
- query-sequence: "LLPKSRENYLNRCMDQERLRREST [FCHO1]"
  protein stability index: 3.31
- query-sequence: "QVLIKHSADVNARDKNWQTPLHVA [ANKRD44]"
  protein stability index: 3.15
- query-sequence: "SPSHKGIAAPHAGANVKPRNSTPP [ZC2HC1A]"
  protein stability index: 4.92
- query-sequence: "SSKTITAEIPDGPPVVAHYDMSDT [C18orf25]"
  protein stability index: 5.14
- query-sequence: "FLQYYYQSGCLYRLRALGERHTMD [TMEM120A]"
  protein stability index: 2.46
- query-sequence: "GLRLRLPRRESLLRGLCRPLRPLL [C6orf223]"
  protein stability index: 2.15
- query-sequence: "SPEQQFDRSVQRLLATRIAVYLMT [TMEM175]"
  protein stability index: 2.31
- query-sequence: "PWKEETFLVLQSLLERQVEMTPEK [FANCE]"
  protein stability index: 3
- query-sequence: "GPEHATRLNGTAKGERRREPGGYD [DVL3]"
  protein stability index: 5.13

The measured protein stability index associated with KCGSGARGGDGEVASAPLQPPVPS [TRADD] reads 4.79

The measured protein stability index associated with NFSNYYVAHPPVTYSQPYPTWLPC [TENT5C] reads 2.46

The measured protein stability index associated with GVKSRIQALRQMNEGAIDCVNYEG [DLC1] reads 3.77

The measured protein stability index associated with TWHDERFLYMLMEYVPGGELFSYL [PRKX] reads 2.85

The measured protein stability index associated with ALRNFACLTTGDVIAINYNEKIYE [UFD1] reads 2.21

The measured protein stability index associated with AMVEFVKLLNRCCHLFSTYVASHK [ACBD3] reads 2.97

The measured protein stability index associated with DSTNVEEAFKNILTEIYRIVSQKQ [RAB11B] reads 2.29

The measured protein stability index associated with WFKTRRKEMTQKLEALHLEALCEE [DENND6A] reads 3.29

The measured protein stability index associated with TGLSMIANGGAICAVTFFTILLSY [OR4A15] reads 2.85

The measured protein stability index associated with LPMLSVDMENKENGSVGVKNSMEN [SAMD13] reads 5.09

The measured protein stability index associated with IDLATWNFQFLPQVNGHPDPFDEI [PTPN9] reads 2.43

The measured protein stability index associated with EEEDLRRRLKYFFMSPCDKFRAKG [MCOLN1] reads 2.65

The measured protein stability index associated with ETALYRKMLGNPSRLPAKCPGKGA [FKBP8] reads 3.61

The measured protein stability index associated with DFEFLAFWQTQYNNMNAVNLFFAW [PKD2L1] reads 3.17

The measured protein stability index associated with IRAAKGLDQALKEGGKLPPPPPPS [ZC2HC1A] reads 4.35

The measured protein stability index associated with ERCLSCILAQQPDRLRDEELAELE [TRADD] reads 4.41

* * *

# assay-details: protein stability index of a GFP-peptide fusion (GPS, HEK-293T) (PSI 1-6); higher = more stable
# measurement-setup: treatment: MLN4924 1 uM, 8 h; c terminus: a fixed tail appended
Classification field. Basis: protein stability index. Definitions: lo: < 3; mid: ≥ 3 and < 4; hi: ≥ 4

- query-sequence: "LSMVSECLFSLINGDDMFVTFAAM [MCOLN1]"
  category: "lo"
- query-sequence: "LSVAPQIGMPFNQLGTLAGSKYYN [SMG5]"
  category: "lo"
- query-sequence: "QRMRVPEKLKVAPPNADLEQGFQE [MFF]"
  category: "hi"

Req: Lab log: GIRLSENVIDRMKESSPSGSKSQR [CHCHD3] — assign protein stability index category
Resp: hi

Req: Lab log: GKDHEILRRRIENGAKELWFFLQS [FUT8] — assign protein stability index category
Resp: lo

Req: Lab log: SMVPPSPAMAASKALGSDLDSSLA [SNAP91] — assign protein stability index category
Resp: hi

Req: Lab log: TYVGALFNGLTLLLMAVVSMFTLP [RTN1] — assign protein stability index category
Resp: mid

Req: Lab log: LVFLITAILVKVQLDALPFFVITM [SLC29A1] — assign protein stability index category
Resp: lo

* * *

# assay-details: protein stability index of a GFP-peptide fusion (GPS, HEK-293T) (PSI 1-6); higher = more stable
# measurement-setup: treatment: MLN4924 1 uM, 8 h; c terminus: a fixed tail appended
quantity-kind: protein stability index
Respond using a number only.

Sample records with protein stability index:
- query-sequence: "AKEVTIAKADTTSTVTPVPGQEKG [EHMT1]"
  protein stability index: 5.52
- query-sequence: "IDRNLREDGEKAAREVKLLLLGAG [GNAI1]"
  protein stability index: 3.58
- query-sequence: "LRTRVKTTGIVETHFTFKDLHFKM [GNAI1]"
  protein stability index: 2.14
- query-sequence: "TVYKARDPHSGHFVALKSVRVPNG [CDK4]"
  protein stability index: 2.68
- query-sequence: "LIKSGAHFDATNLHKQTASDLLDE [FEM1C]"
  protein stability index: 4.53
- query-sequence: "IRLVDDAFGKICHMVSDGSWVVRV [INTS4]"
  protein stability index: 2.98
- query-sequence: "DIARMLYKDTCHELDELQLCKNCF [ZMYND11]"
  protein stability index: 2.52
- query-sequence: "SPNLNVVDGRLTYPTCGIGYPVSS [SASS6]"
  protein stability index: 3.14

The measured protein stability index associated with LMAGCIQEARERWNFDFVTETPLE [CDKN1A] reads 2.92

The measured protein stability index associated with DDVISRIDRMFPEMSIHLSRPNGT [MED27] reads 3.36

The measured protein stability index associated with LQDIKTAGPQSQVLCGVVMDRSLV [ADD1] reads 2.91

The measured protein stability index associated with GANINAQTEETQETALTLACCGGF [ANKRD17] reads 4.59

* * *

# assay-details: protein stability index of a GFP-peptide fusion (GPS, HEK-293T) (PSI 1-6); higher = more stable
# measurement-setup: treatment: DMSO; c terminus: a fixed tail appended
quantity-kind: protein stability index
Respond using a number only.

The measured protein stability index associated with RRVDFCKDPSAIGKKQVPCFASML [CASP6] reads 2.43

The measured protein stability index associated with FFHCYCPVGFGRRTDPNGDYIRRY [CRY1] reads 2.4

The measured protein stability index associated with EQLLDVKLALDMEISAYRKLLQGE [LMNB1] reads 3.02

The measured protein stability index associated with PSWNGSLKQLLTETDVWFSKQRKD [GMCL1] reads 3.27

The measured protein stability index associated with TNLVLPSNGSMHNYCPQQTKITSA [EDNRA] reads 3.75

The measured protein stability index associated with DAETSKLIYDFIEDQGGLEAVRQE [WAS] reads 4.61

The measured protein stability index associated with GKTMELFCQTDQTCICYLCMFQEH [TRIM29] reads 2.34

The measured protein stability index associated with FLKKSQLTEHKRIHTGKKPHVCSL [ZNF649] reads 2.76

The measured protein stability index associated with TAQHQRRLAAIAQEKDQEMERLRE [FBF1] reads 5.36

The measured protein stability index associated with KDVLRYGEEQLKTHKKCKEEVVST [FCHO1] reads 4.85

The measured protein stability index associated with HVPLQRLSLLVHNVSVMHKSLDNM [FBXO33] reads 2.01

The measured protein stability index associated with TLLQDHENQRLFEMLGRKCLTLAT [WAS] reads 2.37

The measured protein stability index associated with GDTLRTFSLVLVLDLSKPNDLWPT [DYNC2LI1] reads 2.89

* * *

Recorded protein stability index for the following sequences
# assay-details: protein stability index of a GFP-peptide fusion (GPS, HEK-293T) (PSI 1-6); higher = more stable
# measurement-setup: treatment: DMSO; c terminus: a fixed tail appended
Respond using a number only.

Sample records with protein stability index:
- query-sequence: "KQNKTPLDKSTTGVSEILLKTQMK [FEM1B]"
  protein stability index: 4.36
- query-sequence: "LRKSDMLEKEQVAHIRAERDILVE [STK38L]"
  protein stability index: 3.8
- query-sequence: "NNVVPIHVPPTTENKPKVQCCQNI [RAB11A]"
  protein stability index: 4.56
- query-sequence: "ECQYYIDKLEYLDEKQRDPRIEAS [NET1]"
  protein stability index: 4.12

The measured protein stability index associated with ATPEQGLSAFYLSYFDMLYPEDSS [SPDEF] reads 2.75

The measured protein stability index associated with RKPAAGAQSAGTQQVAAVSSVSPA [BRD3] reads 4.82

The measured protein stability index associated with PESSALQPPPQSSEGLVGALMHVM [WAS] reads 3.77

The measured protein stability index associated with AIKCSPSLHVDDRERMELLEEAKK [RIPK4] reads 5.12

The measured protein stability index associated with SAAVRGHPRALPPDARPHRRPHEL [HAGHL] reads 4.4

The measured protein stability index associated with DAPEQRLRVMTTNIRSARGNNPNG [ELOA2] reads 4.84

The measured protein stability index associated with LFAGFLPRIIKAAPSCAIMISTYE [SLC25A39] reads 2.8

The measured protein stability index associated with VLGGFLYAVGGSDGTSPLNTVERY [KLHL20] reads 2.18
